Tested on: SNB-75 CNS
ASSAY TEXT: NCI tumour cell line growth inhibition, 48 h; in the data active means GI50 below about 0.43 µM; inactive means the rest
Bench note: report the call from active, inactive

MOLECULE: COc1ccc2c(c1)c1nc3cc(C)c(C)cc3nc1n2CCN(C)C
CLASS: inactive

Exercise: Please state the recorded outcome for this molecule: "COc1cc2c(cc1OC)-c1ccc3cc4c(cc3c1N(CCN(C)C)C2)OCO4"
Key: active

Exercise: Please state the recorded outcome for this molecule: "COc1ccc2c(c1)CCc1[nH]nc(-c3cc(OC)c(OC)c(OC)c3)c1-2"
Key: active

Exercise: Please state the recorded outcome for this molecule: "O=C(NCCN1CCC(O)CC1)c1cc2c(o1)C(=O)c1ccccc1C2=O"
Key: active

Exercise: Please state the recorded outcome for this molecule: "CC1(C)CCC[C@]2(C)c3cc(O)ccc3CC[C@@H]12"
Key: inactive

Exercise: Please state the recorded outcome for this molecule: Oc1ccc2ccccc2c1C1NN=C(c2ccccc2)S1 (stereo unspecified)
Key: inactive

Exercise: Please state the recorded outcome for this molecule: "Nc1nc2ccc3[nH]ncc3c2c2c1CCCC2"
Key: inactive

Exercise: Please state the recorded outcome for this molecule: "CCCCOC(=O)c1ccc(NC(=O)CCl)cc1"
Key: inactive

Exercise: Please state the recorded outcome for this molecule: "COc1ccc(-c2cn(-c3cccc(C(=O)/C=C/c4ccc(O)c(OC)c4)c3)c(=O)[nH]2)cc1"
Key: inactive

Exercise: Please state the recorded outcome for this molecule: "COc1cc(-c2csc(NC(=O)Nc3cc(C(F)(F)F)cc(C(F)(F)F)c3)n2)cc(OC)c1OC"
Key: inactive

Exercise: Please state the recorded outcome for this molecule: "C[C@@H](NC(=O)[C@@H](CC(=O)N1CCC(N2CCCCC2)CC1)N1C(=O)[C@@H](N2C(=O)OC[C@@H]2c2ccccc2)[C@H]1/C=C/c1cccc(Cl)c1)c1ccccc1"
Key: inactive

Exercise: Please state the recorded outcome for this molecule: "C/C(=N\NC(=O)c1cccnc1)c1cccc(/C(C)=N/NC(=O)c2cccnc2)n1.CC(=O)[O-].CC(=O)[O-].[Zn+2]"
Key: inactive

Exercise: Please state the recorded outcome for this molecule: O=CC(Br)C(Br)c1ccccc1 (stereo unspecified)
Key: inactive

Exercise: Please state the recorded outcome for this molecule: "O=C(O)c1ccc([S-])cc1.[Au+].c1ccc(CN2[CH-]N(Cc3ccccc3)C(c3ccccc3)=C2c2ccccc2)cc1"
Key: active

Exercise: Please state the recorded outcome for this molecule: "Cc1cccc(Cl)c1NC(=O)c1cnc(Nc2cc(N3CCOCC3)cc(N3CCOCC3)c2)s1"
Key: active

Exercise: Please state the recorded outcome for this molecule: "CCOc1ccc2nc(-c3cccc(OCC(=O)NC(C)C)c3)nc(Nc3ccc(-c4cn[nH]c4)cc3)c2c1"
Key: inactive

* * *

Test system: HL-60(TB) leukemia
ASSAY TEXT: NCI tumour cell line growth inhibition, 48 h
Recorded measurements of TGI, one per entry

Examples with answers:
COMPOUND: CO[C@H]1C[C@H](n2cc(C)c(=O)[nH]c2=O)O[C@@H]1CO
TGI: > 100 µM
--
COMPOUND: O=C(Cn1c(=O)oc2ccc(C(=O)c3ccccc3Cl)cc21)c1ccc([N+](=O)[O-])cc1
TGI: > 100 µM
--
COMPOUND: COC(=O)c1c(O)ccc2c1c1c(n2Cc2ccccn2)C(=O)c2ccccc2C1=O
TGI: > 100 µM
--
COMPOUND: CCCCOC(=O)c1ccc(NC(=O)CCl)cc1
TGI: 4.86 µM

Exercise: Request - read-out TGI | tested on HL-60(TB) leukemia | compound CCOc1ccccc1N1C(=O)C(=O)C(c2nc3ccccc3o2)/C(=N\N)C1=O (stereo unspecified)
Key: > 100 µM

Exercise: Request - read-out TGI | tested on HL-60(TB) leukemia | compound "c1cncc(-c2nc3ccccc3s2)c1"
Key: > 100 µM

* * *

System: HL-60(TB) leukemia
ASSAY TEXT: NCI tumour cell line growth inhibition, 48 h
VALUE TYPE: TGI (µM)
Respond numerically; units are µM and should not be typed.

Examples with answers:
SMILES STRING: CC1(C)N=C(N)N=C(N)N1c1ccc(CCc2ccc(Cl)cc2S(=O)(=O)F)c(Cl)c1
TGI [µM]: 48.1

SMILES STRING: CSc1n(Cc2ccc3ccccc3c2)c(C)c[n+]1Cc1ccc2ccccc2c1
TGI [µM]: 1.12

SMILES STRING: CCOc1ccc2nc(-c3cccc(OCC(=O)NC(C)C)c3)nc(Nc3ccc(-c4cn[nH]c4)cc3)c2c1
TGI [µM]: 3.41

// next entry
Exercise: Which value of TGI has been reported for "COc1cc(F)cc([C@@H](CO)NC(=O)[C@@H](C)N2Cc3ccc(-c4nc(NC5CCOCC5)ncc4Cl)cc3C2=O)c1" in the records?
Key: 0.859

* * *

Recorded measurements of TGI, one per entry
System: 786-0 renal
ASSAY TEXT: NCI tumour cell line growth inhibition, 48 h
Respond numerically; units are µM and should not be typed.

SMILES STRING: COc1ccc(C2=Nc3c/c(=C\c4c(O)[nH]c5ccc(Cl)cc45)ccc3=N2)cc1
UNIT SYMBOL: µM
TGI: 3.81

Exercise: Which value of TGI has been reported for "O=c1oc2c/c(=C\c3ccccc3)c(=O)c3cccc1c3-2" in the records?
Key: 53.9

* * *

Test system: CAKI-1 renal
ASSAY TEXT: NCI tumour cell line growth inhibition, 48 h
Recorded measurements of TGI, one per entry
Respond numerically; units are µM and should not be typed.

COMPOUND: Clc1ccc2nc(CC3CCCC3)[nH]c2c1
TGI / µM: 27.6
--
COMPOUND: C=CC[N+](CCO)(CCO)CCCCCCCCCCCCCCCCCC
TGI / µM: 17.9
--
COMPOUND: Cc1cc(C)c2c(=N)c3ccccc3n(CCCCCCn3c4ccccc4c(=N)c4c(C)cc(C)nc43)c2n1
TGI / µM: 2.52
--
COMPOUND: CCN(CC)CCCC(C)Nc1c2ccc(Cl)cc2nc2cc(OC)c(OC)cc12 (configuration not stated)
TGI / µM: 5.78

Exercise: Which value of TGI has been reported for "Clc1ccc(C(c2ccc(Cl)cc2)N2CCNCC2)cc1" in the records?
Key: 17.4

Exercise: Which value of TGI has been reported for "CCCOC(=O)N[C@H]1CCc2cc(OC)c(OC)c(OC)c2-c2ccc(SC)c(=O)cc21" in the records?
Key: 24.2

Exercise: Which value of TGI has been reported for COC12OC3CC4(C)C(=CC3OC(OC(C)C1O)C2O)CCC1C4CCC2(C)C(c3ccc(=O)oc3)CCC12O (configuration not stated) in the records?
Key: 0.00849

Exercise: Which value of TGI has been reported for "CC1(C)CCC[C@]2(C)c3cc(O)ccc3CC[C@@H]12" in the records?
Key: 35.9

Exercise: Which value of TGI has been reported for "CC(C)[NH-].CC(C)[NH-].O.O.[Cl][Pt+2][Cl]" in the records?
Key: 124

Exercise: Which value of TGI has been reported for "Cc1c(O)c(=O)ccn1CCc1c[nH]c2ccccc12" in the records?
Key: 7.25

Exercise: Which value of TGI has been reported for "COc1ccc2c3c(c4ccccc4cc13)C(=O)N(CCN(C)CCN)C2=O" in the records?
Key: 2.82

* * *

Tested on: SW-620 colon
ASSAY TEXT: NCI tumour cell line growth inhibition, 48 h
VALUE TYPE: TGI (nM)
Respond numerically; units are nM and should not be typed.

COMPOUND: CCOc1cc2c(cc1O)CC[C@@H]1[C@@H]2CC[C@]2(C)C(OS(=O)OC3CC[C@@H]4[C@H]5CCc6cc(O)c(OCC)cc6[C@@H]5CC[C@@]34C)CC[C@@H]12 (some centres undefined)
VALUE TYPE: TGI
UNIT SYMBOL: nM
MEASURED NUMBER: 11000
--
COMPOUND: Cn1c(/C=C(\C#N)c2cccc(C(F)(F)F)c2)nc2c(N3CCOCC3)nc(Cl)nc21
VALUE TYPE: TGI
UNIT SYMBOL: nM
MEASURED NUMBER: 1400

// next entry
Exercise: Which value of TGI has been reported for "COc1ccc2c(c1)c1nc3cc(C)c(C)cc3nc1n2CCN(C)C" in the records?
Key: 1730

* * *

Test system: COLO 205 colon
ASSAY TEXT: NCI tumour cell line growth inhibition, 48 h
VALUE TYPE: log10 TGI (log10 of the value in µM)
Kindly note that the scale is log10 and the underlying TGI is in µM.

Examples with answers:
MOLECULE: CC(=O)C1COC(O)C1C (stereo not given)
log10 TGI: 1.54

MOLECULE: Cc1ccc(C(=O)N2CCN(C(=O)c3ccc(C)cc3)c3ccccc32)cc1
log10 TGI: 1.51

MOLECULE: CN[C@@H]1C[C@H]2O[C@@](C)([C@@H]1OC)n1c3ccccc3c3c4c(c5c6ccccc6n2c5c31)C(=O)N[C@H]4O
log10 TGI: -0.57

MOLECULE: CSC1(SC)N2Cc3ccccc3N=C2C1(c1ccccc1)c1ccccc1
log10 TGI: 1.19

MOLECULE: Oc1ccc2ccccc2c1C1NN=C(c2ccccc2)S1 (stereo not given)
log10 TGI: 1.21

Exercise: Which value of log10 TGI has been reported for "COc1ccc(N=N/C(=N/NC(=O)c2cc(Cl)ccc2C(=O)c2ccccc2)c2ccc(N(CCC#N)CCC#N)cc2C)cc1" in the records?
Key: 1.63

Exercise: Which value of log10 TGI has been reported for "COc1cccc2c1-c1c(OC)cccc1SS2" in the records?
Key: 1.75

Exercise: Which value of log10 TGI has been reported for "COc1ccc(-c2cn(-c3cccc(C(=O)/C=C/c4ccc(O)c(OC)c4)c3)c(=O)[nH]2)cc1" in the records?
Key: 1.18

Exercise: Which value of log10 TGI has been reported for "CC(C)[NH-].CC(C)[NH-].O.O.[Cl][Pt+2][Cl]" in the records?
Key: 1.99

Exercise: Which value of log10 TGI has been reported for "COc1ccc2c(c1)c1nc3cc(C)c(C)cc3nc1n2CCN(C)C" in the records?
Key: 0.27

Exercise: Which value of log10 TGI has been reported for COc1cc(C2c3cc4c(cc3OC3(OC)COC(=O)C23)OCO4)cc(OC)c1OC (stereo not given) in the records?
Key: -0.19

Exercise: Which value of log10 TGI has been reported for "Cn1c(/C=C(\C#N)c2cccc(C(F)(F)F)c2)nc2c(N3CCOCC3)nc(Cl)nc21" in the records?
Key: 0.43
